Each entry below lists one item and its recorded BI value.
Target: INADL-6 (Homo sapiens)
Sequence (Q8NI35 whole entry): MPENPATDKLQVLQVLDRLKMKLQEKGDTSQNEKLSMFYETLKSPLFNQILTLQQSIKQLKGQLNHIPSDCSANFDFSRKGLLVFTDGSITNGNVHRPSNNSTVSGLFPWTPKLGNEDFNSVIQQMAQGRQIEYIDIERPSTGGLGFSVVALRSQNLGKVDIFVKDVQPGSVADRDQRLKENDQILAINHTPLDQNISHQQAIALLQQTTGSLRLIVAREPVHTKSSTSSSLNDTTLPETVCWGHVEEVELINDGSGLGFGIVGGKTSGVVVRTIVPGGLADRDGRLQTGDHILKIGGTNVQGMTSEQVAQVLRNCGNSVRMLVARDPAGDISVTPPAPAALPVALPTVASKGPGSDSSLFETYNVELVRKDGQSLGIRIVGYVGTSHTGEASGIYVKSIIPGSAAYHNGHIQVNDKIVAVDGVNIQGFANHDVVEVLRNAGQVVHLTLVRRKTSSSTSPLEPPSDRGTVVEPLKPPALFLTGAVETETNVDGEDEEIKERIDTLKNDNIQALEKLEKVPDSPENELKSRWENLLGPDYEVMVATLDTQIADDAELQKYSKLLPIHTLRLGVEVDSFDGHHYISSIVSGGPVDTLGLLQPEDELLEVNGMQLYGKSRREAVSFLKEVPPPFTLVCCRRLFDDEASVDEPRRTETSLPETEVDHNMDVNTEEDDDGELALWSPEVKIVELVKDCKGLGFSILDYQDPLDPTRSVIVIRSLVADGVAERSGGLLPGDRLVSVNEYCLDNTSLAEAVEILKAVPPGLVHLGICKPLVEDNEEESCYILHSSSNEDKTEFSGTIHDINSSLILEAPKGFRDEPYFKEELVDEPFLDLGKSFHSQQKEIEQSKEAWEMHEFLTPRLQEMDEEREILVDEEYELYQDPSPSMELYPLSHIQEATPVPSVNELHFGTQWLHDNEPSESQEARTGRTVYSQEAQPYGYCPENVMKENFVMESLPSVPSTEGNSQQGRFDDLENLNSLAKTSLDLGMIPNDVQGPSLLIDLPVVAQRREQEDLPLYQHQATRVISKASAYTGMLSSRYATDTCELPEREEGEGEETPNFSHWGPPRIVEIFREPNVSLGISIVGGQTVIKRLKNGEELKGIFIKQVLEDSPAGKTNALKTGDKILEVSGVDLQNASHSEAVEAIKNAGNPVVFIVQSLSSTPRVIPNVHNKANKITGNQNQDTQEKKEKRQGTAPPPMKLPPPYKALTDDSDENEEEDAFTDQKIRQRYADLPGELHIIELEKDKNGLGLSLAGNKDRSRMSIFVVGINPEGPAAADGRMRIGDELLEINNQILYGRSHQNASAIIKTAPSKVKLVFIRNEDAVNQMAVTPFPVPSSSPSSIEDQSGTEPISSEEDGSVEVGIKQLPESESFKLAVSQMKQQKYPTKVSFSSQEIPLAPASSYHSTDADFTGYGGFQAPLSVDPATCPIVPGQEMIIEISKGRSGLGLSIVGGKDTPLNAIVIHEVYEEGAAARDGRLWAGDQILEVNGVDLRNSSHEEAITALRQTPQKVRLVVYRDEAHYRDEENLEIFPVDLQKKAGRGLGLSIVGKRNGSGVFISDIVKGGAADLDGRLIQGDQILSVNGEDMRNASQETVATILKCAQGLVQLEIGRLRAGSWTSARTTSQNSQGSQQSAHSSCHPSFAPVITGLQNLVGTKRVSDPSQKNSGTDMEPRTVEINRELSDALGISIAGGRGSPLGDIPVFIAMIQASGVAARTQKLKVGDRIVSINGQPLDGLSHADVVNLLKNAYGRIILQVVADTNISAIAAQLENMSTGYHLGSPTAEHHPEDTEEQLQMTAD
Test: Holdup assay, INADL-6
Type: binding
*1 amine or outer side, *2 acyl side, *3 side chain or, on linkers, in order; H or OH if unused. Where a SMILES comes first, the peptide text is derived from it. The star is where a group is joined. X1 = O=C(CCCC[C@@H]1SC[C@@H]2NC(=O)N[C@@H]21)NCCCOCCOCCOCCCN*; Suc = O=C(CCC(=O)[*:2])[*:1]
// no unit string in output, number only

IN: Consider the compound CC[C@H](C)[C@H](NC(=O)[C@H](CCC(N)=O)NC(=O)[C@@H](NC(=O)[C@H](Cc1c[nH]cn1)NC(=O)[C@H](CCC(N)=O)NC(=O)[C@H](CC(=O)O)NC(=O)[C@H](CCC(=O)O)NC(=O)[C@H](CC(=O)O)NC(=O)[C@H](Cc1ccccc1)NC(=O)[C@@H]1CCCN1C(=O)CCC(=O)NCCCOCCOCCOCCCNC(=O)CCCC[C@@H]1SC[C@@H]2NC(=O)N[C@@H]21)[C@@H](C)O)C(=O)N[C@H](C(=O)N[C@@H](CCCCN)C(=O)N[C@H](C(=O)O)C(C)C)[C@@H](C)O [PTEN_13] ({X1-Suc}-PFDEDQHTQITKV-OH) and give its measured BI.
OUT: 0.044

***
IN: Any idea what BI was measured for CC[C@H](C)[C@H](NC(=O)[C@H](CCC(N)=O)NC(=O)[C@@H](NC(=O)[C@H](Cc1c[nH]cn1)NC(=O)[C@H](CCC(N)=O)NC(=O)[C@H](CC(=O)O)NC(=O)[C@H](CCC(=O)O)NC(=O)[C@H](CC(=O)O)NC(=O)CCC(=O)NCCCOCCOCCOCCCNC(=O)CCCC[C@@H]1SC[C@@H]2NC(=O)N[C@@H]21)[C@@H](C)O)C(=O)N[C@H](C(=O)N[C@@H](CCCNC(=N)N)C(=O)N[C@H](C(=O)O)C(C)C)[C@@H](C)O [PTEN_KR] ({X1-Suc}-DEDQHTQITRV-OH) ?
OUT: 0.066

IN: Sample CC[C@H](C)[C@H](NC(=O)[C@H](CCC(N)=O)NC(=O)[C@@H](NC(=O)[C@H](Cc1c[nH]cn1)NC(=O)[C@H](CCC(N)=O)NC(=O)[C@H](CC(=O)O)NC(=O)[C@H](CCC(=O)O)NC(=O)[C@H](CC(=O)O)NC(=O)CCC(=O)NCCCOCCOCCOCCCNC(=O)CCCC[C@@H]1SC[C@@H]2NC(=O)N[C@@H]21)[C@@H](C)O)C(=O)N[C@H](C(=O)N[C@@H](CCCCN)C(=O)N[C@H](C(=O)O)C(C)C)[C@@H](C)O [PTEN_11] — what was its BI?
OUT: 0.077

----------
Items are presented alongside their recorded BI.
Test system: MAGIX-1
Assay: Holdup assay, MAGIX-1
Assay type: binding, human
*1 amine or outer side, *2 acyl side, *3 side chain or, on linkers, in order; H or OH if unused. Where a SMILES comes first, the peptide text is derived from it. The star is where a group is joined. X1 = O=C(CCCC[C@@H]1SC[C@@H]2NC(=O)N[C@@H]21)NCCCOCCOCCOCCCN*; Suc = O=C(CCC(=O)[*:2])[*:1]
Number, no unit, nothing else.

IN: # lookup: BI of CC[C@H](C)[C@H](NC(=O)[C@H](CCC(N)=O)NC(=O)[C@@H](NC(=O)[C@H](Cc1c[nH]cn1)NC(=O)[C@H](CCC(N)=O)NC(=O)[C@H](CC(=O)O)NC(=O)[C@H](CCC(=O)O)NC(=O)[C@H](CC(=O)O)NC(=O)CCC(=O)NCCCOCCOCCOCCCNC(=O)CCCC[C@@H]1SC[C@@H]2NC(=O)N[C@@H]21)[C@@H](C)O)C(=O)N[C@H](C(=O)N[C@@H](CCCNC(=N)N)C(=O)N[C@H](C(=O)O)C(C)C)[C@@H](C)O [PTEN_KR] ({X1-Suc}-DEDQHTQITRV-OH)
OUT: 0.018

IN: What does the record list as BI for CC[C@H](C)[C@H](NC(=O)[C@H](CCC(N)=O)NC(=O)[C@@H](NC(=O)[C@H](Cc1c[nH]cn1)NC(=O)[C@H](CCC(N)=O)NC(=O)[C@H](CC(=O)O)NC(=O)[C@H](CCC(=O)O)NC(=O)[C@H](CC(=O)O)NC(=O)[C@H](Cc1ccccc1)NC(=O)[C@@H]1CCCN1C(=O)CCC(=O)NCCCOCCOCCOCCCNC(=O)CCCC[C@@H]1SC[C@@H]2NC(=O)N[C@@H]21)[C@@H](C)O)C(=O)N[C@H](C(=O)N[C@@H](CCCCN)C(=O)N[C@H](C(=O)O)C(C)C)[C@@H](C)O [PTEN_13] ({X1-Suc}-PFDEDQHTQITKV-OH) ?
OUT: 0.049

Others:
IN: Please give the measured BI for this compound: CC[C@H](C)[C@H](NC(=O)[C@H](CCC(N)=O)NC(=O)[C@@H](NC(=O)[C@H](Cc1c[nH]cn1)NC(=O)[C@H](CCC(N)=O)NC(=O)[C@H](CC(=O)O)NC(=O)[C@H](CCC(=O)O)NC(=O)[C@H](CC(=O)O)NC(=O)CCC(=O)NCCCOCCOCCOCCCNC(=O)CCCC[C@@H]1SC[C@@H]2NC(=O)N[C@@H]21)[C@@H](C)O)C(=O)N[C@H](C(=O)N[C@@H](CCCCN)C(=O)N[C@H](C(=O)O)C(C)C)[C@@H](C)O [PTEN_11]
OUT: 0.014

IN: May I ask what BI has been recorded for CC[C@H](C)[C@H](NC(=O)[C@H](CCC(N)=O)NC(=O)[C@@H](NC(=O)[C@H](Cc1c[nH]cn1)NC(=O)[C@H](CCC(N)=O)NC(=O)[C@H](CC(=O)O)NC(=O)[C@H](CCC(=O)O)NC(=O)[C@H](CC(=O)O)NC(=O)CCC(=O)NCCCOCCOCCOCCCNC(=O)CCCC[C@@H]1SC[C@@H]2NC(=O)N[C@@H]21)[C@@H](C)O)C(=O)N[C@H](C(=O)N[C@@H](CCCCNC(C)=O)C(=O)N[C@H](C(=O)O)C(C)C)[C@@H](C)O [PTEN_Ac] ?
OUT: -0.034
